Sourced from ChEMBL document CHEMBL1126276

- System: Plasmodium berghei
- experiment-description: Antimalarial activity Plasmodium berghei infected mice (Mus musculus) after 640 mg/kg subcutaneous dose
- Type: functional
Some compounds, each annotated with its measured Delta mean survival time.
Enter the number alone.

In [3]: df
Out[3]:
                                   compound         system_name  experimental_result
0  Cc1ccc(C2CC(=O)c3c(n(O)c4ccc(Cl)cc4c3=O)C2)cc1 (stereo not given)  Plasmodium berghei                  6.9
1  O=C1CC(c2ccc(C(F)(F)F)cc2)Cc2nc3ccc([N+](=O)[O-])cc3c(O)c21 (stereo not given)  Plasmodium berghei                  6.9
2  CN(C)CCC/N=C1\CC(c2ccc(C(F)(F)F)cc2)Cc2nc3ccc(I)cc3c(O)c21 (stereo not given)  Plasmodium berghei                   14
3  O=C1CC2(CCCCC2)Cc2c1c(=O)c1cc(Cl)ccc1n2O  Plasmodium berghei                    0

Input line: // fetch Delta mean survival time for O=C1CC(c2ccc(C(F)(F)F)cc2)Cc2nc3cc(Cl)ccc3c(O)c21 (stereo not given) ; system: Plasmodium berghei
Output line: 0.4

----------
Some molecules, each annotated with its measured No. of cured mice.
- Tested on: Plasmodium berghei
- experiment-description: Antimalarial activity in Plasmodium berghei infected mice (Mus musculus) after subcutaneous 640 mg/kg dose
- Assay type: functional
Enter the number alone.

Some solved cases for reference:
                                   molecule  experimental_result
0  C/N=C1\CC(c2ccc(Cl)c(Cl)c2)Cc2c1c(=O)c1cc(Cl)ccc1n2O (centres undefined)                    3
1  CN(C)CCC/N=C1\CC(c2ccccc2Cl)Cc2nc3ccc(Cl)cc3c(O)c21 (centres undefined)                    5
2  C=CCn1c2c(c(=O)c3cc(Cl)ccc31)C(=O)CC(c1ccc(C(F)(F)F)cc1)C2 (centres undefined)                    4
3  O=C1CC(c2ccc(C(F)(F)F)cc2)Cc2nc3cccc(Cl)c3c(O)c21 (centres undefined)                    5
4  CC1/C(=N\CCCN(C)C)c2c(nc3ccc(Cl)cc3c2O)CC1c1ccc(C(F)(F)F)cc1 (stereo in doubt; trans)                    1
5  CN(C)CCC/N=C1/c2c([nH]c3ccc(Cl)cc3c2=O)CC(c2ccc(Cl)c(Cl)c2)C1c1ccccc1 (centres undefined)                    5
6  CCCC/N=C1\CC(c2ccc(Cl)c(Cl)c2)Cc2c1c(=O)c1cc(Cl)ccc1n2O (centres undefined)                    5
7  O=C1CC(C2CCCCC2)Cc2c1c(=O)c1cc(Cl)ccc1n2O (centres undefined)                    1
8  CCN(CC)CC(C)(C)C/N=C1\CC(c2ccc(Cl)c(Cl)c2)Cc2c1c(=O)c1cc(Cl)ccc1n2O (centres undefined)                    5
9  CN(C)CCC/N=C1\CC(c2ccc(Cl)cc2Cl)Cc2c1c(=O)c1cc(Cl)ccc1n2O (centres undefined)                    4

Input line: Report measured No. of cured mice; entry is CC1/C(=N\CCCN(C)C)c2c(nc3ccc(Cl)cc3c2O)CC1c1ccc(Cl)cc1Cl (centres undefined)
Output line: 3

Input line: Report measured No. of cured mice; entry is Cc1ccc(C2C/C(=N\CCCN(C)C)c3c(n(O)c4ccc(Cl)cc4c3=O)C2)cc1 (centres undefined)
Output line: 4

Input line: Report measured No. of cured mice; entry is CCN(CC)Cc1cccc(/N=C2\CC(c3ccc(Cl)c(Cl)c3)Cc3c2c(=O)c2cc(Cl)ccc2n3O)c1 (centres undefined)
Output line: 4

Input line: Report measured No. of cured mice; entry is O=C1CC(c2ccc(C(F)(F)F)cc2)Cc2c1c(=O)c1c(Cl)c(Cl)ccc1n2O (centres undefined)
Output line: 2
